assay-system: CFTR channel (Homo sapiens, UniProt P13569)
Sequence (P13569 whole entry): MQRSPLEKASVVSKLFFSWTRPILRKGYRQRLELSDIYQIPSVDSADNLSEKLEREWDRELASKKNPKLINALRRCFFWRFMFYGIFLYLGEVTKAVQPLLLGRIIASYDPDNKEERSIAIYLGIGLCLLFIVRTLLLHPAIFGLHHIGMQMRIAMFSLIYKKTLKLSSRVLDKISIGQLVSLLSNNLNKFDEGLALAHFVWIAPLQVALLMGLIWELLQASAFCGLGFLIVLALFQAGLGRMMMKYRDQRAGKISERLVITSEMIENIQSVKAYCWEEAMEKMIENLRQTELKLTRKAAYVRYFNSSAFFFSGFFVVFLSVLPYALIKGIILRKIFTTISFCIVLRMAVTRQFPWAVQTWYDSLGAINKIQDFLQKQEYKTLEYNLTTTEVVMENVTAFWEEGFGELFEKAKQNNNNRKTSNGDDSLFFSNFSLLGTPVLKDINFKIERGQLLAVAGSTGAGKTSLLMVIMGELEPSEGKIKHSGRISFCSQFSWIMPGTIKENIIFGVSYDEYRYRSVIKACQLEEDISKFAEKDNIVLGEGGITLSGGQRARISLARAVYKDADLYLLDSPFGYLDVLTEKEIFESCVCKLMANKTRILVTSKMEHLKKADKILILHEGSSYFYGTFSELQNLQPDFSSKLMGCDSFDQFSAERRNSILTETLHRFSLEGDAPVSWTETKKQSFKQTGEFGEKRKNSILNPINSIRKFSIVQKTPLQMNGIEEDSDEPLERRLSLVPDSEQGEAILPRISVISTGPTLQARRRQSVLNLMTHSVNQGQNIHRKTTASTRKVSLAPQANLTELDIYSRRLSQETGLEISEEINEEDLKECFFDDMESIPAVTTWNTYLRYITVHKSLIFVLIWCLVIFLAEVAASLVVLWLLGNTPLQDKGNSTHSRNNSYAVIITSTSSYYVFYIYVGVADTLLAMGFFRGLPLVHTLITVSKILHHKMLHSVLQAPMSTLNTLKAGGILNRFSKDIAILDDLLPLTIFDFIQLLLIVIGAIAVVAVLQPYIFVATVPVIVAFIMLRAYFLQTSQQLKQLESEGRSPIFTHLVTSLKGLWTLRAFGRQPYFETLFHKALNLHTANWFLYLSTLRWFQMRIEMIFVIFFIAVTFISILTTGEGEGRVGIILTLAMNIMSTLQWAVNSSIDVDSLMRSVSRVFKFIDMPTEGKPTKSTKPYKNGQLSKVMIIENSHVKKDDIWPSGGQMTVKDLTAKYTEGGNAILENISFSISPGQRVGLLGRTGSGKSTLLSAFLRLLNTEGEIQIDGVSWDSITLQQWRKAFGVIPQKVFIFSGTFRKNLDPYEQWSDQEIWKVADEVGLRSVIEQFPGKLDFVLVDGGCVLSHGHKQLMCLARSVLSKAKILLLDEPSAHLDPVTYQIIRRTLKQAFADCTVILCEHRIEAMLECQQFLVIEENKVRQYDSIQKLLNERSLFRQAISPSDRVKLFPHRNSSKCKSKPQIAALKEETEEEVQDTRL
experiment-notes: 125I radioactive iodide efflux in CHO-CFTR(+) cells
Type: cell-based
Set-up: expressed in transfected cells; host or cells: CHO (Chinese hamster ovary) cells, CHO-CFTR(+)
setup-conditions: EC50 of activation of CFTR (125I efflux rate constant), CHO-CFTR(+) cells, FSK 0.1 to 5 μM
pEC50: −log10 of the molar value.
experimental-readout: pEC50

Lookup: // query pEC50 value for entry C=C[C@@]1(C)CC(=O)[C@]2(O)[C@@]3(C)[C@@H](O)CCC(C)(C)[C@@H]3[C@H](O)[C@H](OC(C)=O)[C@@]2(C)O1 [FSK, forskolin, reference compound]
Found: ~6.30
